Entries and their measured degranulation of LAD 2 (beta-hexosaminidase release, % of total) at 30 nM follow.
Target of assay: T1, human TGR12 (untagged) (human, UniProt Q96LB1 1-330)
T1 sequence: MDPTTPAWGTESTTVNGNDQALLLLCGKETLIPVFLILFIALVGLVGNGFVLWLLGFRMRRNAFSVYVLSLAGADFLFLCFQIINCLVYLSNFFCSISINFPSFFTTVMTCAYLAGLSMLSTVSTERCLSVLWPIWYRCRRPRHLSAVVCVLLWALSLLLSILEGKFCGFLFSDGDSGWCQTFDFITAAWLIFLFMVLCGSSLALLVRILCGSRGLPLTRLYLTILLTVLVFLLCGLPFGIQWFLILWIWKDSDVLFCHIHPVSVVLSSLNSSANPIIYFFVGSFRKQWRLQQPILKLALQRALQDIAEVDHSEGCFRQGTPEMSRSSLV
Assay comment: cell-based or functional assay
Where no end group is shown, it is not given here.
Just the number please, in %, no unit attached.

Examples with answers:
Binder: HSDGIFTDSYSRYRKQMAVKKYLAAVL (peptide, UniProt P18509 132-158, looked up, not fully specified; ends and bridges not checked, domain: PACAP-27) [human PACAP27 (pituitary adenylate cyclase activating polypeptide 27)]
Unit label: %
Number: 19.6
--
Binder: DRMPCRNFFWKTFSSCK (peptide, UniProt O00230 89-105, looked up, not fully specified; ends and bridges not checked) [human cortistatin-17]
Unit label: %
Number: 2.8
--
Binder: HSDGIFTDSYSRYRKQMAVKKYLAAVLGKRYKQRVKNK (peptide, UniProt P18509 132-169, looked up, not fully specified; ends and bridges not checked, domain: PACAP-38) [human PACAP38 (pituitary adenylate cyclase activating polypeptide 38)]
Unit label: %
Number: 24.8

(Q) Fill in the blank: the reported degranulation of LAD 2 (beta-hexosaminidase release, % of total) at 30 nM of HSDAVFTDNYTRLRKQMAVKKYLNSILN (peptide, UniProt P01282 125-152, looked up, not fully specified; ends and bridges not checked, domain: VIP; also called vasoactive intestinal peptide) [human VIP (vasoactive intestinal polypeptide)] is ____.
(A) 4

The reported measurements were obtained from patent US20100068208A1.
